Recorded concentration at 1 h values for a group of molecules are listed next.
- TEST NAME: Tissue distribution study in rabbits after oral Panax notoginseng extract with or without Borneol
- Format: in vivo, New Zealand rabbits
- CONDITION DETAILS: New Zealand, rabbit, brain, po, 3 mL·kg^−1, 1.0 h, oral Panax notoginseng, read-out: Concentration in brain
Just the number please, in ng/g, no unit attached.

MOLECULE	MEASURE	ASSAY RESULT
CC(C)=CCC[C@](C)(O[C@@H]1O[C@H](CO)[C@@H](O)[C@H](O)[C@H]1O)[C@H]1CC[C@]2(C)[C@@H]1[C@H](O)C[C@@H]1[C@@]3(C)CC[C@H](O)C(C)(C)[C@@H]3[C@@H](O[C@@H]3O[C@H](CO)[C@@H](O)[C@H](O)[C@H]3O)C[C@]12C [GRg1, ginsenoside Rg1]	concentration at 1 h	910

Continue with the next molecule.
Prompt: # input molecule: CC(C)=CCC[C@](C)(O[C@@H]1O[C@H](CO)[C@@H](O)[C@H](O)[C@H]1O)[C@H]1CC[C@]2(C)[C@@H]1[C@H](O)C[C@@H]1[C@@]3(C)CC[C@H](O)C(C)(C)[C@@H]3[C@@H](O[C@@H]3O[C@H](CO)[C@@H](O)[C@H](O)[C@H]3O[C@@H]3O[C@@H](C)[C@H](O)[C@@H](O)[C@H]3O)C[C@]12C [GRe, ginsenoside Re] ; wanted: its concentration at 1 h
Response: 1210

---

- TEST NAME: Tissue distribution study in rabbits after oral Panax notoginseng extract with or without Borneol
- Format: in vivo, New Zealand rabbits
- CONDITION DETAILS: New Zealand, rabbit, brain, oral, Borneol combined with Panax notoginseng, peak levels at 1.0 h, read-out: level in brain, fold higher than the plasma concentrations
Each entry below lists one item and its recorded Kp at 1 h value.
Keep the answer to the number alone.

MOLECULE	Kp at 1 h
CC(C)=CCC[C@](C)(O[C@@H]1O[C@H](CO)[C@@H](O)[C@H](O)[C@H]1O)[C@H]1CC[C@]2(C)[C@@H]1[C@H](O)C[C@@H]1[C@@]3(C)CC[C@H](O)C(C)(C)[C@@H]3[C@@H](O[C@@H]3O[C@H](CO)[C@@H](O)[C@H](O)[C@H]3O[C@@H]3O[C@@H](C)[C@H](O)[C@@H](O)[C@H]3O)C[C@]12C [GRe, ginsenoside Re]	1.14

Prompt: Consider the molecule shown here: CC(C)=CCC[C@](C)(O[C@@H]1O[C@H](CO)[C@@H](O)[C@H](O)[C@H]1O)[C@H]1CC[C@]2(C)[C@@H]1[C@H](O)C[C@@H]1[C@@]3(C)CC[C@H](O)C(C)(C)[C@@H]3[C@@H](O[C@@H]3O[C@H](CO)[C@@H](O)[C@H](O)[C@H]3O)C[C@]12C [GRg1, ginsenoside Rg1] What is its recorded Kp at 1 h?
Response: 11.8

---

- TEST NAME: Tissue distribution study in rabbits after oral Panax notoginseng extract with or without Borneol
- Format: in vivo, New Zealand rabbits
- CONDITION DETAILS: New Zealand, rabbit, plasma, po, 1.0 h, oral Panax notoginseng with Borneol, read-out: Concentration in plasma
MEASURE: concentration at 1 h (ng/mL)
Give the value, in units of ng/mL, as a plain number.

COMPOUND	MEASURE	ASSAY RESULT
CC(C)=CCC[C@](C)(O[C@@H]1O[C@H](CO)[C@@H](O)[C@H](O)[C@H]1O)[C@H]1CC[C@]2(C)[C@@H]1[C@H](O)C[C@@H]1[C@@]3(C)CC[C@H](O)C(C)(C)[C@@H]3[C@@H](O[C@@H]3O[C@H](CO)[C@@H](O)[C@H](O)[C@H]3O[C@@H]3O[C@@H](C)[C@H](O)[C@@H](O)[C@H]3O)C[C@]12C [GRe, ginsenoside Re]	concentration at 1 h	2420

# ---- query compound ----
Prompt: What measured concentration at 1 h goes with CC(C)=CCC[C@](C)(O[C@@H]1O[C@H](CO)[C@@H](O)[C@H](O)[C@H]1O)[C@H]1CC[C@]2(C)[C@@H]1[C@H](O)C[C@@H]1[C@@]3(C)CC[C@H](O)C(C)(C)[C@@H]3[C@@H](O[C@@H]3O[C@H](CO)[C@@H](O)[C@H](O)[C@H]3O)C[C@]12C [GRg1, ginsenoside Rg1] ?
Response: 2180
